# assay-remarks: Permeability of the compound by PAMPA method
# Type: ADME
# experimental-parameters: read-out: Peff
readout: Papp (×10⁻⁶ cm/s)

The examples below pair each entry with its known result.
CCS(=O)(=O)N1CC[C@H](Nc2c(Br)cnc3[nH]c(-c4cc(C)n(-c5ccc(C(=O)N6CCN(C)CC6)cc5C)c4C)nc23)C1; 13.9
CCS(=O)(=O)N1CC[C@H](Nc2c(Br)cnc3nc(-c4cc(C)n(-c5cccc(NC(=O)CN(C)C)c5C)c4C)[nH]c23)C1; 55.9
CCS(=O)(=O)N1CC[C@H](Nc2c(Br)cnc3nc(-c4cc(C)n(-c5cccc(NC(=O)CN6CCOCC6)c5C)c4C)[nH]c23)C1; 47.8

a = CCS(=O)(=O)N1CC[C@H](Nc2c(Br)cnc3[nH]c(-c4cc(C)n(-c5cccc(C(=O)NCCN(C)C)c5)c4C)nc23)C1
b = CCS(=O)(=O)N1CC[C@H](Nc2c(Br)cnc3[nH]c(-c4cc(C)n(-c5cccc(C(=O)N6CCOCC6)c5)c4C)nc23)C1
Query: Hi, I'm comparing two records. Which one has the lower Papp, a or b ? Label of pick, please.
Reply: a

All figures here come from ChEMBL document CHEMBL5335808.
